# System: Bacillus subtilis
# run.description: cleaved RNA product abundance (RNA/gDNA barcode ratio) relative to median wild-type variant (ratio to wild type); higher = more accumulation of the downstream cleavage product
# measurement.conditions: experiment (reporter, strain, medium): exp 4a: truncated aprE reporter, strain BJT201 with 2% xylose (RNase J1 expressed); cleavage site: cggR-gapA (positions -7 to +36 mutated)
Label no if cleaved RNA product abundance falls below 0.3; label yes in every other case.

Reference set (4 entries):
ACAGACGAAGGAGCCGCACAGAAGTTATTAAGGGATGAATAATCCCTTAATATAAATATCTCTCACTTATTTAAA
yes
ACAGACGAAGGAGCCGCAAAGAAGTTATTACCGGATGAATAATCCCTCAATATAAATATCTCTCACTTATTTAAA
no
ACAGACGAAGGAGCCGCGAAGAAGTTATTAAGGGATGAATAATCCCTCAATATAAATATCTCTCACTTATTTAAA
yes
ACAGACGAAGGAGCCGCATAGAAGTTATTAACGGATGAATAATCCCTCAATATAAATATCTCTCACTTATTTAAA
no

Reported cleaved RNA product abundance reaches at least 0.3 for ACAGACGAAGGAGCCGCAAAGAAGTCATTAAGGGATGAATAATCCCTCAATATAAACATCTCTCACTTATTTAAA ?
yes

Reported cleaved RNA product abundance reaches at least 0.3 for ACAGACGAAGGAGCCGCAAAGAAGTTATTATGGGATAAATAATCCCTCAATATAAATATCTCTCACTTATTTAAA ?
yes

Reported cleaved RNA product abundance reaches at least 0.3 for ACAGACGAAGGAGCCGCAAAGAAGTTATAAAGGGATGAATAAACCCTCAATATAAATATCTCTCACTTATTTAAA ?
no
